system-tested: AAD-13 (v2) (Sphingobium herbicidovorans, UniProt Q700X4)
Construct: His tag (C); made in house; host or cells: E. coli BL-21, pET-26b(+)
Sequence (Q700X4 other isoform, or with tags, fused parts or gaps): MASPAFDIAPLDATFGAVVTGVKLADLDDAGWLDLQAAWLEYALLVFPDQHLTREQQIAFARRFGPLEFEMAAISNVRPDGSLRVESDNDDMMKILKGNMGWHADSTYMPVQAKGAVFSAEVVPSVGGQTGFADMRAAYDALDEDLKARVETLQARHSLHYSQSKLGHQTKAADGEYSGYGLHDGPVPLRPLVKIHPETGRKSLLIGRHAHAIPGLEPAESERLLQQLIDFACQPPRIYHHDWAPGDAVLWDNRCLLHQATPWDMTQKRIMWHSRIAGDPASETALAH
Format: biochemical
assay-context: substrate 1 mM; rate as percentage of 2,4-D rate in same sample set; propionate rates divided by two
Param threshold (50%) applies to % of 24D activity; output Yes when value >= threshold, No when value < threshold.

compound: Cc1cc(Cl)ccc1OC(C)C(=O)O (stereo not shown)
qualitative-label: Yes

compound: CC(Oc1ccc(Cl)cc1Cl)C(=O)O (stereo not shown)
qualitative-label: Yes

compound: C[C@@H](Oc1ccc(Oc2nc3ccc(Cl)cc3o2)cc1)C(=O)O
qualitative-label: No

compound: O=C(O)COc1nc(F)c(Cl)cc1Cl
qualitative-label: No

compound: CCCCOC(C)C(=O)O (stereo not shown)
qualitative-label: Yes

compound: O=C(O)/C=C\c1ccccc1Cl
qualitative-label: No

compound: CC(Oc1nn(-c2ccccc2)c(-c2ccccc2)c1Br)C(=O)O (stereo not shown)
qualitative-label: No

compound: O=C(O)COc1cc(N2C(=O)C3=C(CCCC3)C2=O)c(F)cc1Cl
qualitative-label: No

compound: O=C(O)COCc1ccc(Cl)cc1
qualitative-label: Yes

compound: CC(OCc1ccccc1)C(=O)O (stereo not shown)
qualitative-label: No

====

Entries and their % of 24D activity values follow.
system-tested: AAD-13 (v2) (Sphingobium herbicidovorans, UniProt Q700X4)
Construct: His tag (C); made in house; host or cells: E. coli BL-21, pET-26b(+)
Type: biochemical
assay-context: substrate 1 mM; rate as percentage of 2,4-D rate in same sample set; propionate rates divided by two

compound: O=C(O)/C=C/c1ccccc1Cl
system-tested: AAD-13 (v2) (Sphingobium herbicidovorans, UniProt Q700X4)
reading-unit: %
value-operator: =
% of 24D activity: 10
--
compound: O=C(O)COc1ccc(F)cc1Cl
system-tested: AAD-13 (v2) (Sphingobium herbicidovorans, UniProt Q700X4)
reading-unit: %
value-operator: =
% of 24D activity: 44
--
compound: O=C(O)COCc1ccccc1
system-tested: AAD-13 (v2) (Sphingobium herbicidovorans, UniProt Q700X4)
reading-unit: %
value-operator: =
% of 24D activity: 128
--
compound: O=C(O)COc1nc(Cl)c(Cl)cc1Cl
system-tested: AAD-13 (v2) (Sphingobium herbicidovorans, UniProt Q700X4)
reading-unit: %
value-operator: =
% of 24D activity: 6
--
compound: O=C(O)COc1ccc(C(=O)c2ccccc2)cc1
system-tested: AAD-13 (v2) (Sphingobium herbicidovorans, UniProt Q700X4)
reading-unit: %
value-operator: =
% of 24D activity: 56
--
compound: CC(Oc1nc(F)c(Cl)c(N)c1Cl)C(=O)O (stereo not shown)
system-tested: AAD-13 (v2) (Sphingobium herbicidovorans, UniProt Q700X4)
reading-unit: %
value-operator: =
% of 24D activity: 43
--
compound: CC(Oc1ccc(C(=O)c2ccccc2)cc1)C(=O)O (stereo not shown)
system-tested: AAD-13 (v2) (Sphingobium herbicidovorans, UniProt Q700X4)
reading-unit: %
value-operator: >
% of 24D activity: 100
--
compound: CC(Oc1nc(F)c(Cl)cc1Cl)C(=O)O (stereo not shown)
system-tested: AAD-13 (v2) (Sphingobium herbicidovorans, UniProt Q700X4)
reading-unit: %
value-operator: =
% of 24D activity: 88

Hey, just so you know, these numbers are from patent US9062284B2.
